B1: TRIM15 (parent)
chain: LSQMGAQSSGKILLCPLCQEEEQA

Variants of: B1
Protocol description: protein stability index of a GFP-peptide fusion (GPS, HEK-293T) (PSI 1-6); higher = more stable;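 note: lentivirally expressed fusions sorted by FACS into six bins by GFP to DsRed ratio, PSI derived from sequencing read proportions per bin multiplied by bin number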
Conditions: c terminus: a fixed tail appended
Please enter fulfilled where protein stability index is greater than or equal to 4, and not fulfilled where it is lower.

residue_change=L17S qualitative_label=fulfilled
residue_change=Q3Y qualitative_label="not fulfilled"
residue_change=C15T qualitative_label=fulfilled
residue_change=Q7F qualitative_label="not fulfilled"
residue_change=S8Y qualitative_label="not fulfilled"
residue_change=G5L qualitative_label="not fulfilled"
residue_change=L14N qualitative_label="not fulfilled"
residue_change=K11N qualitative_label=fulfilled
residue_change=K11P qualitative_label="not fulfilled"
residue_change=M4C qualitative_label=fulfilled
residue_change=Q19C qualitative_label="not fulfilled"
residue_change=L1W qualitative_label=fulfilled
residue_change=A24H qualitative_label="not fulfilled"
residue_change=G10C qualitative_label="not fulfilled"
residue_change=S2K qualitative_label="not fulfilled"
residue_change=Q3T qualitative_label="not fulfilled"
residue_change=C18E qualitative_label=fulfilled
residue_change=A24T qualitative_label="not fulfilled"
residue_change=Q7S qualitative_label="not fulfilled"
residue_change=G5Y qualitative_label="not fulfilled"
residue_change=S2H qualitative_label="not fulfilled"
residue_change=Q23L qualitative_label="not fulfilled"
residue_change=K11H qualitative_label="not fulfilled"
residue_change=G10W qualitative_label="not fulfilled"
residue_change=Q23M qualitative_label="not fulfilled"
